Biological target: T1, GST-TIP2 PDZ domain fusion protein (human, UniProt O14908 118-223)
T1 construct: domain: PDZ domain; not shown: glutathione-S transferase (GST) encoded by the pGEX-3X vector (Pharmacia); short vector-encoded linker
T1 sequence (looked up): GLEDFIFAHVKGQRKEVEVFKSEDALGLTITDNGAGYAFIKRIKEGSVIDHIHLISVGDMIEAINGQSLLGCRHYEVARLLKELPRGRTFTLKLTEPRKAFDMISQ
Experiment: modified G assay, peptide titrated against a constant amount of immobilized GST-PDZ fusion; Hill fit
Ends that are not written are not given here. * marks the point of attachment. Biotin = O=C1N[C@H]2[C@H](CS[C@H]2CCCCC(=O)*)N1
Endpoint: pEC50
Please treat pEC50 as minus the base-10 logarithm of the molar concentration.

Query string: I would be grateful if you could share the reported pEC50 for Biotin-YGRKKRRQRRRIGELQLSIA (Synthetic peptide, HPLC purified; pre-mixed with HRP-streptavidin in the modified G assay; also called Tat-hCLCA1 (SIA)) .
Result string: 5.96
